# protocol.summary: Log P by HPLC on reversed phase columns (EEC directive 79/831 Annex V.A8; methods [a], [b], [c])
# Format: physicochemical
recorded.metric: LogP

[[record]]
molecule = "N#Cc1cncn1CC(O)(c1cc(F)cc(Cl)c1F)C1(Cl)CC1 (stereo not drawn) [I-610]"
value_observed = "2.49^[a]"

[[record]]
molecule = "N#Cc1cncn1CC(O)(CC1CC1)c1ccc(Cl)cc1C(F)(F)F (stereo not drawn) [I-460]"
value_observed = "3.10^[a]"

[[record]]
molecule = "CCC(O)(Cn1cncc1C#N)c1ccc(Cl)cc1 (stereo not drawn) [I-222]"
value_observed = "2.32^[a]"

[[record]]
molecule = "CCCCC(O)(Cn1cncc1C#N)c1ccc(F)cc1F (stereo not drawn) [I-262]"
value_observed = "2.73^[a]"

[[record]]
molecule = "N#Cc1cncn1CC(O)(c1ccc(F)cc1Br)C1CCCCC1 (stereo not drawn) [I-479]"
value_observed = "3.46^[a]"

[[record]]
molecule = "N#Cc1cncn1CC(O)(c1ccc(Cl)cc1C(F)(F)F)C1CC1 (stereo not drawn) [I-464]"
value_observed = "2.78^[a]"

[[record]]
molecule = "N#Cc1cncn1CC(O)(c1ccc(F)c(Cl)c1)C1(F)CC1 (stereo not drawn) [I-444]"
value_observed = "2.39^[a]"

[[record]]
molecule = "CC(C)CC(O)(Cn1cncc1C#N)c1ccccc1C(F)(F)F (stereo not drawn) [I-343]"
value_observed = "2.88^[a]"

[[record]]
molecule = "N#Cc1cncn1CC(O)(c1c(F)cccc1F)C1(F)CC1 (stereo not drawn) [I-520]"
value_observed = "1.94^[a]"

[[record]]
molecule = "C[Si](C)(C)CC(O)(Cn1cncc1C#N)c1ccc(OC(F)(F)F)cc1 (stereo not drawn) [I-270]"
value_observed = "3.70^[a]"

[[record]]
molecule = "N#Cc1cncn1CC(O)(c1ccc(F)cc1)C1CC1 (stereo not drawn) [I-411]"
value_observed = "1.98^[a]"

[[record]]
molecule = "N#Cc1cncn1CC(O)(c1cnc(Br)cc1Cl)C1(F)CC1 (stereo not drawn) [I-686]"
value_observed = "1.97^[a]"

[[record]]
molecule = "CC(O)(Cn1cncc1C#N)c1ccc(Oc2ccc(I)cc2)cc1F (stereo not drawn) [I-189]"
value_observed = "3.48^[a]"

[[record]]
molecule = "N#Cc1cncn1CC(O)(c1c(F)cc(F)cc1Br)C1(F)CC1 (stereo not drawn) [I-547]"
value_observed = "2.27^[a]"

[[record]]
molecule = "CCCC(C)C(O)(Cn1cncc1C#N)c1ccc(Cl)cc1Cl (single isomer, unassigned) [I-315]"
value_observed = "3.63^[a]"

[[record]]
molecule = "N#Cc1cncn1CC(O)(CC1CC1)c1ccc(F)c(Cl)c1 (stereo not drawn) [I-485]"
value_observed = "2.52^[a]"

[[record]]
molecule = "N#Cc1cncn1CC(O)(c1ccc(F)cc1F)C1CC1 (stereo not drawn) [I-410]"
value_observed = "2.18^[a]"

[[record]]
molecule = "OC(Cn1cncc1Cl)c1ccc(Oc2ccc(Cl)cc2)cc1C(F)(F)F (stereo not drawn) [I-21]"
value_observed = "2.86^[a]"

[[record]]
molecule = "N#Cc1cncn1CC(O)c1ccc(Oc2ccc(Br)cc2)nc1C(F)(F)F (stereo not drawn) [I-128]"
value_observed = "3.09^[a]"

[[record]]
molecule = "OC(Cn1cncc1Cl)c1ccc(Oc2ccc(OC(F)(F)F)cc2)cc1Cl (stereo not drawn) [I-04]"
value_observed = "2.82^[a]"

[[record]]
molecule = "CCc1ccc(C(O)(Cn2cncc2C#N)C2(Cl)CC2)c(Cl)c1 (stereo not drawn) [I-353]"
value_observed = "2.86^[a]"


Where these numbers come from: patent US20200031778A1
